target: mu opioid receptor (MOR) (Homo sapiens, UniProt P35372); experiment: OPRMu1 Discover X β-arrestin Assay, antagonist mode (U2OS cells, DAMGO EC80 challenge)
Sequence (P35372 whole entry): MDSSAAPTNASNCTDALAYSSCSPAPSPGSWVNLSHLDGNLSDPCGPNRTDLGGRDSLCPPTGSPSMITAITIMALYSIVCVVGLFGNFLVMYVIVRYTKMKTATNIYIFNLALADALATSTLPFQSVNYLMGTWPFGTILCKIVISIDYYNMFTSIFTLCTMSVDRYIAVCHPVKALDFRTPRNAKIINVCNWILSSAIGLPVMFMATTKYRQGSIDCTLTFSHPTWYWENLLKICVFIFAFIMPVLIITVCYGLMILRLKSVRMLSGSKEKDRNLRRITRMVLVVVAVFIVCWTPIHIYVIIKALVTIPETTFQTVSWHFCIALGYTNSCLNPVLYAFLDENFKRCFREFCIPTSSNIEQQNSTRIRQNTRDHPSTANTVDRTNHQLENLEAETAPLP
Assignment: determine reported IC50 for the given compounds.

| compound | IC50 |
| --- | --- |
| CCc1cc(-c2ccnn2C)c2nc(N3CCC(N[C@@H]4CCOC[C@H]4F)CC3)c(-c3ccn(C)n3)c(C)c2c1 | 100 to 1000 nM |
| CCc1cc(-c2ccn(C)n2)c2nc(N3CCC(NC4CC(F)(F)C4)CC3)c(-c3nc(C)no3)c(C)c2c1 | > 1000 nM |
| CCc1cc(F)c2nc(N3CC[C@H](N[C@@H]4CCCOC4)C[C@@H]3C)c(-c3ccn(C)n3)c(C)c2c1 | > 1000 nM |
| CCc1cc(F)c2nc(N3CC[C@H](N[C@@H]4CCOC4)[C@@H](C)C3)c(-c3ccn(C)n3)c(C)c2c1 | 100 to 1000 nM |
| CCc1cc(F)c2nc(N3CCN([C@@H]4CCOC4)C[C@H]3C)c(-c3nc(C)no3)c(C)c2c1 | > 1000 nM |

Each of the following entries comes with a recorded value; kindly state IC50 for each.
1. CCc1cc(F)c2nc(N3CC[C@@H](N[C@@H]4CCCOC4)[C@H](C)C3)c(-c3ccn(C)n3)c(C)c2c1
2. CCc1cc(F)c2nc(N3CCN(C(=O)[C@@H](C)N(CC)CC)C[C@H]3C)c(-c3ccn(C)n3)c(C)c2c1
3. CCc1cc(F)c2nc(N3CCN(C(=O)[C@@H]4CCCN4C)C[C@H]3C)c(-c3ccn(C)n3)c(C)c2c1
4. CCc1cc(F)c2nc(N3CC[C@@H](N[C@@H]4CCCOC4)C[C@@H]3C)c(-c3cc(C)no3)c(C)c2c1
5. CCc1cc(F)c2nc(N3CC[C@H]4[C@H](CCN4C[C@@H]4CCCOC4)C3)c(-c3ccn(C)n3)c(C)c2c1

1. 100 to 1000 nM
2. > 1000 nM
3. > 1000 nM
4. > 1000 nM
5. > 1000 nM

Provide the reported IC50 of each entry below, same order.
1. CCc1cc(-c2ccnn2C)c2nc(N3CCNC4CC43)c(-c3ccn(C)n3)c(C)c2c1 (stereo not shown)
2. CCc1cc(F)c2nc(N3CCC(N[C@H]4CCOC4)CC3)c(-c3cc(C(F)(F)F)n(C)n3)c(C)c2c1
3. CCc1cc(F)c2nc(N3CCN(C[C@@H]4CCCO4)C[C@H]3C)c(-c3nc(C)no3)c(C)c2c1
4. CCc1cc(-c2ccn(C)n2)c2nc(N3CCC(N[C@H]4CCOC[C@@H]4F)CC3)c(-c3nc(C)no3)c(C)c2c1
5. CCc1cc(F)c2nc(N3CCC(N[C@@H]4CCOC[C@H]4F)CC3)c(-c3cc(C)n(C)n3)c(C)c2c1
6. CCc1cc(F)c2nc(N3CCN(C(=O)C(C)(C)N4CCCC4)C[C@H]3C)c(-c3cc(C)no3)c(C)c2c1
7. CCc1cc(F)c2nc(N3CC[C@H](N[C@@H]4CCOC4)[C@H](F)C3)c(-c3ccn(C)n3)c(C)c2c1
8. CCc1cc(F)c2nc(N3CCN(CC4CCOCC4)[C@H](C)C3)c(-c3nc(C)no3)c(C)c2c1

1. > 1000 nM
2. > 1000 nM
3. > 1000 nM
4. > 1000 nM
5. 100 to 1000 nM
6. > 1000 nM
7. > 1000 nM
8. > 1000 nM

Quick batch: IC50 for everything below.
1. CCc1cc(F)c2nc(N3CCN(C(=O)CN(C)C)C[C@H]3C)c(-c3cc(C)no3)c(C)c2c1
2. CCc1cc(F)c2nc(N3CCN(C(=O)CN(C)C)C[C@H]3C)c(-c3nc(C)no3)c(C)c2c1
3. CCc1cc(F)c2nc(N3CCN(C(=O)CCN(C)C)C[C@H]3C)c(-c3nc(C)no3)c(C)c2c1
4. CCN/C(=N/C#N)N1CCN(c2nc3c(F)cc(CC)cc3c(C)c2-c2ccn(C)n2)[C@H](C)C1

> 1000 nM
> 1000 nM
> 1000 nM
> 1000 nM

Below are some compounds; for each one, tell me its IC50.
1. CCc1cc(F)c2nc(N3CCN([C@H]4CCOC4)C[C@H]3C)c(-c3nc(C)no3)c(C)c2c1
2. CCc1cc(-c2ccnn2C)c2nc(N3CCC(NCC4CC(F)(F)C4)CC3)c(-c3ccn(C)n3)c(C)c2c1
3. CCc1cc(-c2ccnn2C)c2nc(N3CCN(C[C@H]4CCOC4)C[C@H]3C)c(-c3ccn(C)n3)c(C)c2c1
4. CCc1cc(F)c2nc(N3CC[C@@H](N[C@@H]4CCOC4)C[C@@H]3C)c(-c3ccn(C)n3)c(C)c2c1
5. CCc1cc(F)c2nc(N3CCN(C(=O)[C@@H]4CCCN4C)C[C@H]3C)c(-c3cc(C)no3)c(C)c2c1
6. CCc1cc(F)c2nc(N3CC[C@@H](N[C@H]4CCOC4)[C@@H](F)C3)c(-c3ccn(C)n3)c(C)c2c1

> 1000 nM
10 to 100 nM
> 1000 nM
> 1000 nM
> 1000 nM
> 1000 nM

* * *

target: mu opioid receptor (MOR) (Homo sapiens, UniProt P35372); experiment: OPRMu1 Discover X β-arrestin Assay, antagonist mode (U2OS cells, DAMGO EC80 challenge)
Field: IC50. Provide a value for each of the compounds that follow.

Known IC50 results, listed for orientation:
| compound | IC50 |
| --- | --- |
| CCc1cc(F)c2nc(N3CCN(CC4CCOCC4)C[C@H]3C)c(-c3nc(C)no3)c(C)c2c1 [Compound 49] | > 1 µM |
| CCc1cc(F)c2nc(N3CCN(C(=O)CN(C)C)C[C@H]3C)c(-c3ccn(C)n3)c(C)c2c1 [Compound 171] | > 1 µM |
| CCc1cc(F)c2nc(N3CCC(N[C@H]4CCOC[C@@H]4F)CC3)c(-c3cc(C)n(C)n3)c(C)c2c1 [Compound 3] | 0.1 to 1 µM |
| CCc1cc(F)c2nc(N3CCN(C(=O)[C@H](C)N4CC[C@@H](F)C4)C[C@H]3C)c(-c3nc(C)no3)c(C)c2c1 (stereo in doubt) [Compound 151] | > 1 µM |
| CCc1cc(C#N)c2nc(N3CCC(N4CCOC[C@@H]4C)CC3)c(-c3ccn(C)n3)c(C)c2c1 [Compound 81] | > 1 µM |
| CCc1cc(F)c2nc(N3CCN(C(=O)[C@H]4CC(F)(F)CCN4C)C[C@H]3C)c(-c3nc(C)no3)c(C)c2c1 [Compound 205] | > 1 µM |

Fill blank: measured IC50 of the compound CCc1cc(F)c2nc(N3CC[C@H](N[C@@H]4CCOC4)C[C@H]3C)c(-c3cc(C)no3)c(C)c2c1 [Compound 140] is ____. 0.1 to 1 µM

* * *

target: mu opioid receptor (MOR) (Homo sapiens, UniProt P35372); assay: OPRMu1 Discover X β-arrestin Assay, antagonist mode (U2OS cells, DAMGO EC80 challenge)
pIC50: −log10 of the molar value.
Would you mind telling me the reported pIC50 of each entry?

See these solved cases before continuing.
| compoundString | target | testResult |
| --- | --- | --- |
| CCc1cc(-c2ccnn2C)c2nc(N3CCN(CC4CC(F)(F)C4)C[C@H]3C)c(-c3ccn(C)n3)c(C)c2c1 | mu opioid receptor (MOR) (Homo sapiens, UniProt P35372) | < 6.00 |
| CCc1cc(F)c2nc(N3CCC(N[C@@H]4CCOC[C@H]4O)CC3)c(-c3cc(C)n(C)n3)c(C)c2c1 | mu opioid receptor (MOR) (Homo sapiens, UniProt P35372) | 6.00 to 7.00 |
| CCc1cc(F)c2nc(N3CCN(C(=O)[C@@H](C)N(CC)CC)C[C@H]3C)c(-c3nc(C)no3)c(C)c2c1 | mu opioid receptor (MOR) (Homo sapiens, UniProt P35372) | < 6.00 |

Batch of 5 molecules: report pIC50 for each.
1. CCc1cc(-c2ccnn2C)c2nc(N3CCC(N[C@H]4CCOC[C@@H]4F)CC3)c(-c3ccn(C)n3)c(C)c2c1
2. CCc1cc(F)c2nc(N3CCC(NCC4(F)CC4)CC3)c(-c3cc(C)n(C)n3)c(C)c2c1
3. CCc1cc(F)c2nc(N3CCN(CC4CCOCC4)C[C@H]3C)c(-c3ccn(C)n3)c(C)c2c1
4. CCc1cc(F)c2nc(N3CCN(C(=O)C(C)(C)N4CCCC4)C[C@H]3C)c(-c3nc(C)no3)c(C)c2c1
5. CCc1cc(F)c2nc(N3CCN(CC4(O)CCOCC4)C[C@H]3C)c(-c3nc(C)no3)c(C)c2c1

6.00 to 7.00
6.00 to 7.00
< 6.00
< 6.00
< 6.00

Consider the following items and state reported pIC50 for each.
1. CCc1cc(F)c2nc(N3CCN(C(=O)[C@@H]4C[C@@H](O)CN4C)C[C@H]3C)c(-c3nc(C)no3)c(C)c2c1
2. CCc1cc(F)c2nc(N3CCN(/C(=N/C#N)NC4CC(F)(F)C4)C[C@H]3C)c(-c3nc(C)no3)c(C)c2c1
3. CCc1cc(F)c2nc(N3CCN(C(=O)[C@@H](C)N(CC)CC)C[C@H]3C)c(-c3cc(C)no3)c(C)c2c1
4. CCc1cc(F)c2nc(N3CC[C@H](N[C@@H]4CCCOC4)[C@@H](C)C3)c(-c3ccn(C)n3)c(C)c2c1
5. CCc1cc(F)c2nc(N3CCN(C(=O)[C@H]4CCCN4C)C[C@H]3C)c(-c3nc(C)no3)c(C)c2c1

1. < 6.00
2. 7.00 to 8.00
3. < 6.00
4. < 6.00
5. < 6.00

So what's the measured pIC50 for this one? CCc1cc(F)c2nc(N3CCN(C(=O)[C@@H]4C[C@@H](O)CN4C)C[C@H]3C)c(-c3cc(C)no3)c(C)c2c1 < 6.00
